molecular target: Beta-lactoglobulin (Bos taurus) (UniProt P02754); assay: Binding affinity to bovine beta-lactoglobulins assessed as aggregate diameter size formed at 200 uM by dynamic light scattering method
Sequence (P02754 whole entry): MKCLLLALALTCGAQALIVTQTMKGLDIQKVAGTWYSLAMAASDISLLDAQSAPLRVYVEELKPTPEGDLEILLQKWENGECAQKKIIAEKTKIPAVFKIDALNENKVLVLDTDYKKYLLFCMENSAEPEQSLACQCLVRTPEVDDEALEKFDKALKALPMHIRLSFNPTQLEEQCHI
Measurement Label: Activity (nm)

COC(=O)/C=C/c1ccc(/C=C/C2=C(C)CCCC2(C)C)cc1 | 276
C/C(=C\c1ccc(C(=O)O)cc1)c1ccc2c(c1)C(C)(C)CCC2(C)C | 243
CC1=C(/C=C/C(C)=C/C=C/C(C)=C/CO)C(C)(C)CCC1 | 129

(1) CC1=C(/C=C/C(C)=C/C=C/C(C)=C/C(=O)Nc2ccc(O)cc2)C(C)(C)CCC1 [FENRETINIDE]
(2) CC1=C(/C=C/c2ccc(/C=C/C(=O)O)cc2)C(C)(C)CCC1
Q. For 1 and 2 , which recorded Activity is lower? Provide the label of your selected option as the answer.
A. 2

###

system: Rangifer tarandus; assay: Binding affinity to reindeer beta-lactoglobulin at 100 uM by ultrafiltration/HPLC method
Calls of active or inactive are those of the source. The calls are words filed in the database; no cut-off is given here.
Measurement Label: Activity

Observe how each entry below is paired with its result.
CC1=C(/C=C/C(C)=C/C=C/C(C)=C/CO)C(C)(C)CCC1 [RETINOL] | 7.6%
COC(=O)/C=C/c1ccc(/C=C/C2=C(C)CCCC2(C)C)cc1 | 11%
CC1=C(/C=C/c2ccc(/C=C/C(=O)O)cc2)C(C)(C)CCC1 | 18.8%
C/C(=C\c1ccc(C(=O)O)cc1)c1ccc2c(c1)C(C)(C)CCC2(C)C | Active

Switching to the query record.
Q. Item CC1=C(/C=C/C(C)=C/C=C/C(C)=C/C(=O)Nc2ccc(O)cc2)C(C)(C)CCC1 [FENRETINIDE] has what recorded Activity?
A. Active

###

experiment: Solubility in PBS assessed as aggregate diameter size at 200 uM by dynamic light scattering method
Measurement Label: Activity (nm)

Observe how each entry below is paired with its result.
CC1=C(/C=C/C(C)=C/C=C/C(C)=C/C(=O)Nc2ccc(O)cc2)C(C)(C)CCC1 [FENRETINIDE] | 818.1
COC(=O)/C=C/c1ccc(/C=C/C2=C(C)CCCC2(C)C)cc1 | 791.6

(1) CC1=C(/C=C/c2ccc(/C=C/C(=O)O)cc2)C(C)(C)CCC1
(2) CC1=C(/C=C/C(C)=C/C=C/C(C)=C/CO)C(C)(C)CCC1
Q. Parameter check: reported Activity is higher for which label, 1 or 2 ? Provide the label of your selected option as the answer.
A. 2
(2: 972.2 nm, 1: 668.7 nm)

###

biological target: Beta-lactoglobulin (Bos taurus); assay: Binding affinity to bovine beta-lactoglobulins at 100 uM by ultrafiltration/HPLC method
Active and inactive are the calls of the source. The calls are words filed in the database; no cut-off is given here.
Measurement Label: Activity

Observe how each entry below is paired with its result.
CC1=C(/C=C/C(C)=C/C=C/C(C)=C/CO)C(C)(C)CCC1 [RETINOL] | 7.9%
CC1=C(/C=C/c2ccc(/C=C/C(=O)O)cc2)C(C)(C)CCC1 | 29.1%
CC1=C(/C=C/C(C)=C/C=C/C(C)=C/C(=O)Nc2ccc(O)cc2)C(C)(C)CCC1 [FENRETINIDE] | Active
C/C(=C\c1ccc(C(=O)O)cc1)c1ccc2c(c1)C(C)(C)CCC2(C)C | Active

Switching to the query record.
Q. Please tell me: Activity of COC(=O)/C=C/c1ccc(/C=C/C2=C(C)CCCC2(C)C)cc1 , system Beta-lactoglobulin (Bos taurus)?
A. 7%
